Source of measurements: PubChem BioAssay AID179

# System: CEM cells HIV-1 protection, formazan growth assay
# assay-explanation: NCI AIDS Antiviral Assay
# cond: measured here: growth of uninfected CEM cells
measurement-name: log10 of IC50 (log10 of the value in µM)

{"compound": "Cn1cnc([N+](=O)[O-])c1Sc1ncnc2nc[nH]c12", "log10 of IC50": 1.03}
{"compound": "COc1ccc2c(c1)OC[C@@H]1c3cc(O)c(OCc4ccccc4)cc3O[C@]21C", "log10 of IC50": 1.38}
{"compound": "Nc1cccc(Nc2nc3ccccc3nc2NS(=O)(=O)c2ccccc2)c1", "log10 of IC50": 1.71}
{"compound": "CC1(C)COC(c2c(-c3ccccc3)noc2CS(=O)c2ccccc2)=N1 (centres undefined)", "log10 of IC50": 1.63}
{"compound": "CCN(CC)P1(=S)OCC(C)O1 (centres undefined)", "log10 of IC50": 2.49}
{"compound": "N#Cc1ccc(SSc2ccc(C#N)cc2)cc1", "log10 of IC50": 0.98}
{"compound": "O=C(Nc1ccc(Cl)c(C(F)(F)F)c1)C(=O)c1c(O)c2ccccc2oc1=O", "log10 of IC50": 2.28}
{"compound": "CCC[CH2][Sn]([CH2]CCC)([O]C(=O)c1cc(OC)c(OC)cc1OC)[O][Sn]([CH2]CCC)([CH2]CCC)[O]C(=O)c1cc(OC)c(OC)cc1OC", "log10 of IC50": -0.52}
{"compound": "Cc1c(C(=O)Nc2ccc(Cl)c(C(F)(F)F)c2)oc2cc(O)ccc2/c1=N\\NC(N)=S", "log10 of IC50": 2.05}
{"compound": "C=C1C(=O)C23C(O)C1CC[C@H]2C12CCCC(C)(COC(C)=O)[C@H]1[C@H](O)[C@]3(O)OC2 (some centres undefined)", "log10 of IC50": -0.40}
{"compound": "CN(C)CCSc1cccc(-c2cc(-c3cccc(SCCN(C)C)c3)nc(SCCN(C)C)n2)c1", "log10 of IC50": -0.15}
{"compound": "CCCc1ccc(NCc2cc(OC)c(OC)c(OC)c2)cc1", "log10 of IC50": 1.50}
{"compound": "CCOP(=O)(OCC)/C(C#N)=C/c1c(C)[nH]c2ccccc12", "log10 of IC50": 2.20}
{"compound": "N#Cc1c(N)[nH]c2ccc(Sc3ccccc3)cc12", "log10 of IC50": -1.08}
{"compound": "CN1C(C)(c2ccccc2)c2ccccc2S1(=O)=O (centres undefined)", "log10 of IC50": 1.93}
{"compound": "COC(=O)/C=C/C(=O)CC(O)COC(=O)c1ccccc1 (centres undefined)", "log10 of IC50": 0.32}
{"compound": "Cc1sc(N=Nc2c(O)[nH]c3ccccc23)nc1-c1ccccc1", "log10 of IC50": 1.64}
{"compound": "C=CCc1cc(/C(CC)=C(/CC)c2ccc(OCCN(CC)CC)c(CC=C)c2)ccc1OCCN(CC)CC", "log10 of IC50": 0.92}
{"compound": "CC(=O)OCC1OC(n2c(Br)nc3c2c(=O)n(C)c(=O)n3C)C(OC(C)=O)C1OC(C)=O (centres undefined)", "log10 of IC50": 1.84}
{"compound": "CC(=O)Nc1ccc(NNc2cc(=O)n(C)c(=O)[nH]2)cc1", "log10 of IC50": 0.38}
{"compound": "NC(=Nc1c([N+](=O)[O-])cnc2ccccc12)N1CCOCC1", "log10 of IC50": 2.10}
{"compound": "N#Cc1c(C#N)c(SSc2c(C#N)c(C#N)c(N)n2-c2ccccc2)n(-c2ccccc2)c1N", "log10 of IC50": 0.29}
{"compound": "CCOC(=O)/C(=C\\n1c(=O)sc2ccccc21)C(=O)c1ccccc1", "log10 of IC50": 1.63}
{"compound": "Cc1ccnc2n[nH]nc12", "log10 of IC50": 2.57}
{"compound": "CC1C2(C)OCC(C#N)(C(=N)O2)C1(C#N)C#N (centres undefined)", "log10 of IC50": 1.32}
{"compound": "Brc1ccc2c(-c3csc(-c4c[nH]c5cc(Br)ccc45)n3)c[nH]c2c1", "log10 of IC50": 1.72}
{"compound": "S=P1(c2ccccc2)Nc2ccc(Cl)cc2N1 (centres undefined)", "log10 of IC50": 0.96}
